- Assay Explanation: qHTS RealTime-Glo MT Cell Viability Assay in HEK293 cells - 40 hour (AID 1224874); note: % is set by controls: 0 for no effect and ±100 for the full control effect; nearly all actives have a fitted effect of over 50% in size
- Run Parameters: RealTime-Glo luminescence; stronger effect = lower value
Inconclusive results are not listed.
Measured Quantity: max response (%)
Only the number, expressed in %, is required.

Sample answers from the record:
CC1=CC[C@H](CC=O)C1(C)C    1.6
NS(=O)(=O)c1cc2c(cc1Cl)NC(CC1CCCC1)NS2(=O)=O (stereo not given)    5.55
CCCCOC(=O)C(C)OC(=O)CCC (stereo not given)    13
O=S1(=O)CCCC1    9.26
CCCCCN(CCCOC)C(=O)C(CCC(=O)O)NC(=O)c1ccc(Cl)c(Cl)c1 (stereo not given)    -0.0123

**Q:** Record request: max response value, item CCCCC(CC)CNC(=O)CC(C)OC(=O)CCC(=O)O (stereo not given)
**A:** 3.69

**Q:** Record request: max response value, item `CCC(=O)c1ccc(O)cc1`
**A:** -7.06

**Q:** Record request: max response value, item `CCCCCCCCCCC`
**A:** -0.764

**Q:** Record request: max response value, item C[N+](C)(C)CC(O)CCl (stereo not given)
**A:** -4.6

**Q:** Record request: max response value, item `OCCCCCCCl`
**A:** -5.21

* * *

- Assay Explanation: qHTS assay to test for compound auto fluorescence at 460 nm (blue) in HepG2 cells (AID 720687); note: % is set by controls: 0 for no effect and ±100 for the full control effect
- Run Parameters: autofluorescence 405/460 nm, 1 h; series mostly up to 91.3 µM
Active and inactive are the calls of the source. The call rests on the fitted dose curve; in most records, active means well fitted curve in the direction sought with a large enough effect in the repeat runs; inconclusive means weak or mixed curves; inactive means flat fitted curve, though single readings scatter.
Measured Quantity: fluorescence, % of fluorescent control

CC(=O)OCCCc1ccccc1    inactive
NC(Cc1c[nH]c2ccccc12)C(=O)O (stereo unspecified)    inactive
CC(C)CCC(=O)CCC(C)C    inactive
CCC(CO)CO    inactive

**Q:** Record request: fluorescence, % of fluorescent control value, item `CNC(=O)C(c1ccccc1)c1ccccc1`
**A:** inactive

**Q:** Record request: fluorescence, % of fluorescent control value, item `CNCc1ccccc1`
**A:** inactive

**Q:** Record request: fluorescence, % of fluorescent control value, item `N#CCCOCCOCCC#N`
**A:** inactive

**Q:** Record request: fluorescence, % of fluorescent control value, item `CC(=O)Nc1ccc(C)cc1`
**A:** inactive

**Q:** Record request: fluorescence, % of fluorescent control value, item `CCS(=O)(=O)CCn1c([N+](=O)[O-])cnc1C`
**A:** 0.0125% [at 18.6 µM] (inactive)

**Q:** Record request: fluorescence, % of fluorescent control value, item `CCCCCCCCOC(C)=O`
**A:** inactive

**Q:** Record request: fluorescence, % of fluorescent control value, item C=CCOCC(O)CCl (stereo unspecified)
**A:** inactive

**Q:** Record request: fluorescence, % of fluorescent control value, item CC(CC(=O)O)CC(C)(C)C (stereo unspecified)
**A:** inactive

**Q:** Record request: fluorescence, % of fluorescent control value, item `O=C1OC(=O)c2ccccc21`
**A:** inactive

**Q:** Record request: fluorescence, % of fluorescent control value, item `C=C(C)[C@@H]1CC[C@@H](C)C[C@@H]1O`
**A:** inactive

**Q:** Record request: fluorescence, % of fluorescent control value, item `CCC(C)(C)C1CCC(=O)CC1`
**A:** inactive

**Q:** Record request: fluorescence, % of fluorescent control value, item `COc1cc([N+](=O)[O-])ccc1N`
**A:** inactive

From: PubChem BioAssay (Tox21)
